- Test Protocol: Toxicity in ICR mouse assessed as induction of animal survival rate at 300 mg/kg, ip measured after 14 days
- Format: organism-based
- Protocol Conditions: in vivo
Endpoint Name: survival at 336 h
Report field: quantity (unit follows the number).

Task item: Can you share its survival at 336 h? I mean this molecule: COc1cc(-c2nc(NC(=O)OCC3=CCCCC3=O)cc3c2[nH]c2ccccc23)cc(OC)c1OC
Reply: 100%

###

- Test Protocol: Toxicity in ICR mouse assessed as induction of animal survival rate at 375 mg/kg, ip measured after 14 days
- Type: organism-based
- Protocol Conditions: in vivo
Endpoint Name: survival at 336 h (%)
Give the number; % is assumed, so skip it.

Task item: Can you share its survival at 336 h? I mean this compound: COc1cc(-c2nc(NC(=O)OCC3=CCCCC3=O)cc3c2[nH]c2ccccc23)cc(OC)c1OC
Reply: 80

###

- Test Protocol: Toxicity in ip dosed ICR mouse for 14 days
- Assay type: organism-based
- Protocol Conditions: in vivo
Endpoint Name: LD50 at 336 h (mg/kg)
Give the number; mg/kg is assumed, so skip it.

Task item: Can you share its LD50 at 336 h? I mean this compound: COc1cc(-c2nc(NC(=O)OCC3=CCCCC3=O)cc3c2[nH]c2ccccc23)cc(OC)c1OC
Reply: 475

###

Each entry below lists one item and its recorded pIC50 value.
- Tested on: HepG2
- Test Protocol: Antiproliferative activity against human HepG2 cells by MTT assay
- Type: functional, cell-based
In plain terms, pIC50 is the concentration in mol/L turned into minus its base-10 logarithm.

Here's what some known entries look like.
smiles_structure=C/C=C/C(=O)OCC1=CCCCC1=O system=HepG2 recorded_measurement=5.23
smiles_structure=COc1cc(-c2nc(NC(=O)OCC3=CCCCC3=O)cc3c2[nH]c2ccccc23)cc(OC)c1OC system=HepG2 recorded_measurement=5.80
smiles_structure=COc1cc(-c2nc(N)cc3c2[nH]c2ccccc23)cc(OC)c1OC system=HepG2 recorded_measurement=4.77

Task item: Can you share its pIC50? I mean this molecule: COc1ccc2c(c1)[nH]c1c(C)nccc12
Reply: 4.30

Task item: Can you share its pIC50? I mean this molecule: COc1cc(-c2nc(N(C(=O)OCC3=CCCCC3=O)C(=O)OCC3=CCCCC3=O)cc3c2[nH]c2ccccc23)cc(OC)c1OC
Reply: 5.57
